Reference for the values: the RNAGym collection of RNA variant scans (doi:10.1073/pnas.2313332121)

B1: TPR 5TU (parent)
chain: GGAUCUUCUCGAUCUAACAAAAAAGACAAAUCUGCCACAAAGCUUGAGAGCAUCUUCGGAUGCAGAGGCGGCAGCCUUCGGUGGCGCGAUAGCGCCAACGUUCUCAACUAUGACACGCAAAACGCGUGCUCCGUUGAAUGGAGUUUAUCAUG

# Variants of: B1
# test.method.notes: polymerase ribozyme fitness, log enrichment relative to wild type (log ratio); higher = more active; in vitro selection for triplet polymerase activity
This sample holds only a part of the variants without activity.
Recorded polymerase ribozyme fitness (log ratio), one value per entry.

{"change": "G58U C87A U109C U148C", "value.modifier": "≤", "polymerase ribozyme fitness (log ratio)": -4.2}
{"change": "A37G C93U", "value.modifier": "=", "polymerase ribozyme fitness (log ratio)": -3.38}
{"change": "C14U C87U", "value.modifier": "=", "polymerase ribozyme fitness (log ratio)": -2.18}
{"change": "A91U U145A", "value.modifier": "=", "polymerase ribozyme fitness (log ratio)": -4}
{"change": "A21C A26U A60C G70C G81A G84U G92A A115U", "value.modifier": "≤", "polymerase ribozyme fitness (log ratio)": -4.2}
{"change": "A52C G81A G86U", "value.modifier": "=", "polymerase ribozyme fitness (log ratio)": -2.1}
{"change": "A24C A30G A73U C96A", "value.modifier": "≤", "polymerase ribozyme fitness (log ratio)": -4.2}
{"change": "C43A C96A U101G A150U", "value.modifier": "=", "polymerase ribozyme fitness (log ratio)": -4.16}
{"change": "A29U A142G C149U", "value.modifier": "≤", "polymerase ribozyme fitness (log ratio)": -4.2}
{"change": "C57A C95U C149U", "value.modifier": "=", "polymerase ribozyme fitness (log ratio)": -0.536}
{"change": "A39C A64C C93U", "value.modifier": "≤", "polymerase ribozyme fitness (log ratio)": -4.2}
{"change": "C10U C85G", "value.modifier": "=", "polymerase ribozyme fitness (log ratio)": -3.57}
{"change": "C8A U13G G50C C76G C118A", "value.modifier": "≤", "polymerase ribozyme fitness (log ratio)": -4.2}
{"change": "G81A C96U C114G A115U", "value.modifier": "=", "polymerase ribozyme fitness (log ratio)": -3.6}
{"change": "A22G U130A", "value.modifier": "=", "polymerase ribozyme fitness (log ratio)": -1.59}
{"change": "U31G G50A C87A U135A", "value.modifier": "≤", "polymerase ribozyme fitness (log ratio)": -4.2}
